Measured Activity values are reported for all entries that follow.
# assayed.target: Ribosomal protein S6 kinase beta-1 (Homo sapiens)
# method.summary: Enzymatic radiometric [Km ATP] KinaseProfiler LeadHunter assay, kinase: p70S6K, catalogue number: 14-486KP The assay has been performed by Eurofins Discovery.
# condition.description: ATP concentration 15.0 uM, Test compound concentration 10.0 uM
Kindly provide the numeric value in % only, without the unit symbol.

Cn1ncc(-c2cc3c(N[C@@H](c4ccc5c(n4)OCCO5)C(C)(C)C)ncnc3[nH]2)c1C#N 108
CNC(=O)Cn1cc(-c2cc3c(N[C@@H](c4ccc5c(c4)S(=O)(=O)CCC5)C(C)C)ncnc3[nH]2)cn1 100
COc1ccc([C@@H](Cc2nnn[nH]2)NC(=O)c2ncnc3[nH]ccc23)cc1 81
CC(C)[C@H](Nc1ncnc2[nH]c(-c3cnn(C)c3C#N)cc12)c1ccc2c(n1)OCCO2 125
CC(C)[C@H](Nc1ncnc2[nH]ccc12)c1ccc2c(c1)S(=O)(=O)CCC2 103
Cc1nn(C)cc1-c1cc2c(N[C@H](c3ccc4c(c3)S(=O)(=O)CCC4)C(C)C)ncnc2[nH]1 108

Fill in Activity for record "CC(C)[C@@H](Nc1ncnc2[nH]ccc12)c1ccc2c(c1)S(=O)(=O)CCC2"
98

Tell us which Activity value is on record for "C[C@H](C(=O)O)[C@@H](NC(=O)c1ncnc2[nH]ccc12)c1ccc(Br)cc1"
97

====

# assayed.target: PI3-kinase p110-delta/p85-alpha (Homo sapiens) (UniProt P27986+O00329)
# method.summary: Enzymatic radiometric [Km ATP] KinaseProfiler LeadHunter assay, kinase: PI3 Kinase (p110-delta/p85-alpha), catalogue number: 14-604KP The assay has been performed by Eurofins Discovery.
# Type: protein-complex assay
# condition.description: ATP concentration 200.0 uM, Test compound concentration 10.0 uM
assay.metric: Activity
Answer with the figure and its unit, nothing else.

Examples from the recorded data:
COc1ccc([C@H](Cc2nnn[nH]2)NC(=O)c2ncnc3[nH]ccc23)cc1 97%
C[C@H](C(=O)O)[C@@H](NC(=O)c1ncnc2[nH]ccc12)c1ccc(Br)cc1 97%
CNC(=O)Cn1cc(-c2cc3c(N[C@@H](c4ccc5c(c4)S(=O)(=O)CCC5)C(C)C)ncnc3[nH]2)cn1 87%
CC(C)[C@@H](Nc1ncnc2[nH]ccc12)c1ccc2c(c1)S(=O)(=O)CCC2 101%

Let us move to another entry and its Activity.
Input "CC(C)[C@H](Nc1ncnc2[nH]c(-c3cnn(C)c3C#N)cc12)c1ccc2c(n1)OCCO2" , output reported Activity.
66%

====

# assayed.target: Mitogen-activated protein kinase 14 (Homo sapiens)
# method.summary: Enzymatic radiometric [Km ATP] KinaseProfiler LeadHunter assay, kinase: SAPK2a, catalogue number: 14-251KP The assay has been performed by Eurofins Discovery.
# condition.description: ATP concentration 90.0 uM, Test compound concentration 10.0 uM
assay.metric: Activity (%)
The response must be a number in % with no trailing unit.

Use the examples below as a reference point.
CC(C)[C@H](Nc1ncnc2[nH]c(-c3cnn(C)c3C#N)cc12)c1ccc2c(n1)OCCO2 99
COc1ccc([C@@H](Cc2nnn[nH]2)NC(=O)c2ncnc3[nH]ccc23)cc1 100

Please give measured Activity of the following entry: "CC(C)[C@@H](Nc1ncnc2[nH]c(C(=O)N[C@@H]3CCN(C)C3)cc12)c1ccc2c(c1)S(=O)(=O)CCC2"
97

Identify measured Activity corresponding to "C[C@H](C(=O)O)[C@@H](NC(=O)c1ncnc2[nH]ccc12)c1ccc(Br)cc1"
103

Identify measured Activity corresponding to "CC(C)[C@H](Nc1ncnc2[nH]ccc12)c1ccc2c(c1)S(=O)(=O)CCC2"
107

Give the reported value of Activity for this record: "CNC(=O)Cn1cc(-c2cc3c(N[C@@H](c4ccc5c(c4)S(=O)(=O)CCC5)C(C)C)ncnc3[nH]2)cn1"
103
